Target: ERα/SRC-3 coactivator interaction (Homo sapiens, UniProt P03372, C381S/C530S)
Sequence (P03372 311-547 C381S/C530S limits assumed): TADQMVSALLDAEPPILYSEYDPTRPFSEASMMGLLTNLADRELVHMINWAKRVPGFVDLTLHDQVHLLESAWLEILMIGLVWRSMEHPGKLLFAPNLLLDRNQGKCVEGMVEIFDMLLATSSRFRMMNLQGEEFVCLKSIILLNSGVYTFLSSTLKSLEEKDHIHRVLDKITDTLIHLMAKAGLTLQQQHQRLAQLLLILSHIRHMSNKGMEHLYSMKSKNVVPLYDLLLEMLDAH
Assay: TR-FRET CBI assay, ERα-LBD / SRC-3-NRD
Format: binding
Conditions: 1 μM estradiol, fluorescein-SRC-3-NRD 50 nM
result-type: TR-FRET Ki ERα

* CC(C)CNc1cc(CCc2cccc3ccccc23)nc(N(C)CC(C)C)n1 [Compound 31c] | inactive
* CC(C)CNc1cc(S(=O)(=O)CC(C)C)nc(NCC(C)C)n1 [Compound 28] | lack of activity
* CC(C)CNc1cc(CCc2ccccc2)nc(N(C)CC(C)C)n1 [Compound 32] | inactive
* CC(C)CNc1cc(OCC(C)C)nc(NCC(C)C)n1 [Compound 27b] | lack of activity
